Give measured kinase still bound, per cent of control for each item. Keep answers brief.
- tested_system: UniProt:Q00526
- Sequence (Q00526 whole entry, looked up): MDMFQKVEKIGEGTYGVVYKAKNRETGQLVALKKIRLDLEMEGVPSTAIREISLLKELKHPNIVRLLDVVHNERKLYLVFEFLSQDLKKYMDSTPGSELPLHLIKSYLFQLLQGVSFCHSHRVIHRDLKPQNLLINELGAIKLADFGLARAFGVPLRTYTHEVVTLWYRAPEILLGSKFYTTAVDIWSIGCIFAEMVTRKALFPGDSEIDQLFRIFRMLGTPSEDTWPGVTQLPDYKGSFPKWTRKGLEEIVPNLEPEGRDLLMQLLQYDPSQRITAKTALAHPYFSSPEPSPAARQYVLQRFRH
- assay_summary: KINOMEscan competition binding
- study_conditions: compound 10.0 µM
Give your result as the value with the unit written after it.

INPUT: Would you mind telling me what kinase still bound, per cent of control value was observed for N#Cc1cc(-c2ccnc(Nc3ccc(-n4cnc(-c5cccnc5)n4)cc3)n2)cc(N2CCOCC2)c1 ?
OUTPUT: 45%

INPUT: Tell me the measured kinase still bound, per cent of control of CCCS(=O)(=O)Nc1ccc(F)c(C(=O)c2c[nH]c3ncc(Cl)cc23)c1F , please.
OUTPUT: 98%

INPUT: Reported kinase still bound, per cent of control for O=c1[nH]c2ccccc2n1C1CCN(Cc2ccc(-c3nc4cc5[nH]cnc5cc4nc3-c3ccccc3)cc2)CC1 : what is it?
OUTPUT: 100%

INPUT: Recorded kinase still bound, per cent of control of Cc1cn(-c2cc(C(=O)Nc3ccc(C)c(NC(=O)c4ccno4)c3)cc(C(F)(F)F)c2)cn1 , please.
OUTPUT: 100%

INPUT: Quick check: kinase still bound, per cent of control of COc1cc2ncnc(Nc3cccc(Cl)c3)c2cc1OC ?
OUTPUT: 100%

INPUT: Entry CC(=O)c1c(C)c2cnc(Nc3ccc(N4CCNCC4)cn3)nc2n(C2CCCC2)c1=O has what kinase still bound, per cent of control?
OUTPUT: 74%

INPUT: Fill blank: measured kinase still bound, per cent of control of the molecule COc1cc(N2CCC(C(N)=O)CC2)ccc1Nc1nc(N)c(Cl)c(Nc2ccccc2S(=O)(=O)C(C)C)n1 is ____.
OUTPUT: 100%

INPUT: Fill in the blank: the reported kinase still bound, per cent of control of C=CC(=O)Nc1ccc(C(=O)c2sc(Nc3ccc(N4CCN(C)CC4)cc3OC)nc2N)cc1 is ____.
OUTPUT: 88%

INPUT: What does the record list as kinase still bound, per cent of control for CCN1CCN(Cc2ccc(NC(=O)c3ccc(C)c(/C=C/c4cnc5[nH]ccc5c4OC)c3)cc2C(F)(F)F)CC1 ?
OUTPUT: 100%

INPUT: # get_value(readout='kinase still bound, per cent of control', item= CCN(CCO)CCCOc1ccc2c(Nc3cc(CC(=O)Nc4cccc(F)c4)[nH]n3)ncnc2c1 )
OUTPUT: 95%

INPUT: Name the reported kinase still bound, per cent of control value associated with the molecule COc1cc(C)c(Sc2cnc(NC(=O)c3ccc(CNC(C)C(C)C)cc3)s2)cc1C(=O)N1CCN(C(C)=O)CC1 (stereo not drawn)
OUTPUT: 100%

INPUT: What value of kinase still bound, per cent of control has been recorded for this entry: COc1ccc(N(C(=O)Oc2cc(C(=O)Nc3cccc(C(F)(F)F)c3)ccc2C)c2ccnc(Nc3ccc(N4CCN(C)CC4)cc3)n2)c(OC)c1
OUTPUT: 100%

INPUT: Requested read-out: kinase still bound, per cent of control. Entry: COc1cc2c(Nc3ccc(NC(=O)c4ccccc4)cc3)ncnc2cc1OCCCN1CCOCC1
OUTPUT: 100%

INPUT: Which measured kinase still bound, per cent of control value corresponds to CCOc1cc(N2CCC(O)CC2)ccc1Nc1ncc2c(n1)N(C)c1ccccc1C(=O)N2C ?
OUTPUT: 100%

INPUT: Which kinase still bound, per cent of control reading was recorded for the molecule CC1=C(C(=O)Nc2cc3cn[nH]c3cc2F)C(c2ccc(C(F)(F)F)cc2)CC(=O)N1 (stereo not drawn) ?
OUTPUT: 77%

INPUT: Look up kinase still bound, per cent of control: CCc1nc(-c2cccc(C)c2)c(-c2ccnc(NC(=O)c3ccccc3)c2)s1
OUTPUT: 100%

INPUT: # kinase still bound, per cent of control lookup, item CNC(=O)Nc1ccc(-c2nc(N3CC4CCC(C3)O4)c3cnn(C4CCC5(CC4)OCCO5)c3n2)cc1
OUTPUT: 99%

INPUT: What value of kinase still bound, per cent of control has been recorded for this entry: N#C/C(=C1/Nc2ccccc2S1)c1ccnc(NCCc2cccnc2)n1
OUTPUT: 100%
